Reference source: ChEMBL document CHEMBL3217672

As shown below, each of these molecules has a reported pIC50 value.
# test.target: Proteasome Macropain subunit MB1 (Homo sapiens, UniProt P28074)
# test: Inhibition of 26S proteasome beta5 subunit in human Calu6 cells using Suc-LLVY-aminoluciferin as substrate after 1hr by luminescence assay
# Assay type: cell-based, Calu-6
Recall that pIC50 is obtained by taking minus log10 of the concentration measured in molar.

CC(C)(C)CNC(=O)C[C@H](NC(=O)CCc1ccccc1)C(=O)N[C@@H](CCc1ccccc1)C(=O)NCC1CC1 6.44

Problem: Write pIC50 of Cc1ccc(CNC(=O)[C@H](CCc2ccccc2)NC(=O)[C@H](Cc2nc(C(C)(C)C)no2)NC(=O)C(=O)c2c[nH]c3ccccc23)cc1 ; system used: Proteasome Macropain subunit MB1 (Homo sapiens, UniProt P28074)
Result: 7.52

Problem: Write pIC50 of Cc1ccc(CNC(=O)[C@H](CCc2ccccc2)NC(=O)[C@H](CCc2ccccc2)NC(=O)[C@H](CCc2ccccc2)NC(=O)c2cnc(C)cn2)cc1 ; system used: Proteasome Macropain subunit MB1 (Homo sapiens, UniProt P28074)
Result: 7.28

Problem: Write pIC50 of Cc1ccc(CNC(=O)[C@H](CCc2ccccc2)NC(=O)[C@H](Cc2nc(C(C)(C)C)no2)NC(=O)c2cc(C)on2)cc1 ; system used: Proteasome Macropain subunit MB1 (Homo sapiens, UniProt P28074)
Result: 5.77

###

# test.target: Proteasome Macropain subunit MB1 (Homo sapiens)
# test: Inhibition of 20S proteasome beta5 subunit in human erythrocytes using Ac-WLA-AMC as substrate by fluorescence assay
# Assay type: cell-based
reported.property: IC50 (nM)
# number only, unit nM dropped from output

Reference set, count: 3
CC(C)(C)CNC(=O)C[C@H](NC(=O)CCc1ccccc1)C(=O)N[C@@H](CCc1ccccc1)C(=O)NCC1CC1 12
CCCNC(=O)C[C@H](NC(=O)c1cc(C)on1)C(=O)N[C@@H](CCc1ccccc1)C(=O)NCc1ccc(C)cc1 160
Cc1ccc(CNC(=O)[C@H](CCc2ccccc2)NC(=O)[C@H](CC(=O)NCC(C)C)NC(=O)c2cc(C)on2)cc1 7.3

Problem: Write IC50 of Cc1ccc(CNC(=O)[C@H](CCc2ccccc2)NC(=O)[C@H](Cc2nc(C(C)(C)C)no2)NC(=O)c2cc(C)on2)cc1 ; system used: Proteasome Macropain subunit MB1 (Homo sapiens)
Result: 93

Problem: Write IC50 of Cc1cc(C(=O)N[C@@H](CC(=O)NCC(C)(C)C)C(=O)N[C@@H](Cc2ccc(Cl)cc2)C(=O)NCc2ccccc2Cl)no1 ; system used: Proteasome Macropain subunit MB1 (Homo sapiens)
Result: 16

Problem: Write IC50 of Cc1ccc(CNC(=O)[C@H](CCc2ccccc2)NC(=O)[C@H](CCc2ccccc2)NC(=O)[C@H](CCc2ccccc2)NC(=O)c2cnc(C)cn2)cc1 ; system used: Proteasome Macropain subunit MB1 (Homo sapiens)
Result: 16

###

# test.target: Proteasome Macropain subunit MB1 (Homo sapiens, UniProt P28074)
# Sequence (P28074 whole entry): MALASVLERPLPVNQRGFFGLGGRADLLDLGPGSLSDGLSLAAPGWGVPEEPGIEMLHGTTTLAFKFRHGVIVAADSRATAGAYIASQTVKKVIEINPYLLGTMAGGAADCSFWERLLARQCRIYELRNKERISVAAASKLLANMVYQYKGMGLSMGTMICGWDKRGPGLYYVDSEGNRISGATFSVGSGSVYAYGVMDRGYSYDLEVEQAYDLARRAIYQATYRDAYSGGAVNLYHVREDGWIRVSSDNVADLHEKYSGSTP
# test: Inhibition of 20S proteasome beta5 subunit in human erythrocytes using Ac-WLA-AMC as substrate by fluorescence assay
# Format: cell-based
reported.property: pIC50
Recall that pIC50 is obtained by taking minus log10 of the concentration measured in molar.

Cc1ccc(CNC(=O)[C@H](CCc2ccccc2)NC(=O)[C@H](CNC(=O)CC(C)(C)C)NC(=O)C(=O)c2c[nH]c3ccccc23)cc1 6.04

Problem: Item Cc1ccc(CNC(=O)[C@H](CCc2ccccc2)NC(=O)[C@H](Cc2nc(C(C)(C)C)no2)NC(=O)C(=O)c2c[nH]c3ccccc23)cc1 : provide pIC50
Result: 7.94
